Every entry's value here was drawn from patent US10968163B2.

# system.under.test: FABP7 (Homo sapiens (Human), UniProt O15540)
# Sequence (O15540 whole entry, species assumed): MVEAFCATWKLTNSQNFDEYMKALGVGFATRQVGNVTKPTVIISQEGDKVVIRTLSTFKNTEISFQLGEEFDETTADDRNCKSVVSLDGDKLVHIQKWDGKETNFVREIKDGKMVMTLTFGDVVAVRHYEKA
For each record, check the reported Ki: if it is below 1 µM write yes (1), else write no (0).

compound	label.class
CCOCCOCCOCCn1cc(-c2cccc(OC(=O)[C@H]3[C@@H](c4ccccc4)[C@H](C(=O)O)[C@@H]3c3ccccc3)c2)nn1 [Compound 3t]	no (0)
O=C(O)[C@H]1[C@H](c2ccccc2)[C@H](C(=O)OCc2ccc(Br)cc2)[C@H]1c1ccccc1 [Compound 3d]	no (0)
COc1ccc(COC(=O)[C@H]2[C@@H](c3ccccc3)[C@H](C(=O)O)[C@@H]2c2ccccc2)cc1 [Compound 3b]	no (0)
COc1ccccc1C1C(C(=O)O)C(c2ccccc2OC)C1C(=O)O[C@@H]1CCCC[C@H]1c1ccccc1 (some centres unmarked) [Compound 4e]	yes (1)
O=C(O)C1C(c2ccccc2)C(C(=O)OC2CCCCC2)C1c1ccccc1 (centres unmarked) [Compound 3s]	yes (1)
O=C(O)[C@H]1[C@H](c2ccccc2)[C@H](C(=O)Oc2ccc(-c3ccccc3)cc2)[C@H]1c1ccccc1 [Compound 3i]	no (0)
O=C(O)[C@H]1[C@H](c2ccccc2)[C@H](C(=O)Oc2ccc(Cl)c(Cl)c2Cl)[C@H]1c1ccccc1 [Compound 3k]	yes (1)
O=C(O)[C@H]1[C@H](c2ccccc2)[C@H](C(=O)OCC2c3ccccc3-c3ccccc32)[C@H]1c1ccccc1 [Compound 3q]	no (0)

* * *

pKi: −log10 of the molar value.
Target or system FABP3 (Homo sapiens (Human), UniProt P05413); recorded quantity pKi.

molecule	pKi
O=C(O)[C@H]1[C@H](c2ccccc2)[C@H](C(=O)OCc2ccc(Br)cc2)[C@H]1c1ccccc1	< 5.00
O=C(O)[C@H]1[C@H](c2ccccc2Cl)[C@H](C(=O)OC2CCCC[C@H]2c2ccccc2)[C@H]1c1ccccc1Cl (stereo partly drawn)	< 5.00
C#Cc1cccc2c(OC(=O)[C@H]3[C@@H](c4ccccc4)[C@H](C(=O)O)[C@@H]3c3ccccc3)cccc12	5.31
O=C(O)C1C(c2ccccc2)C(C(=O)OC2CCCCC2)C1c1ccccc1 (stereo not drawn)	< 5.00
CCOCCOCCOCCn1cc(-c2cccc(OC(=O)[C@H]3[C@@H](c4ccccc4)[C@H](C(=O)O)[C@@H]3c3ccccc3)c2)nn1	< 5.00
O=C(O)[C@H]1[C@H](c2ccccc2)[C@H](C(=O)Oc2ccccc2-c2ccccc2O)[C@H]1c1ccccc1	5.45
O=C(O)[C@H]1[C@H](c2ccccc2)[C@H](C(=O)OCC2c3ccccc3-c3ccccc32)[C@H]1c1ccccc1	< 5.00
O=C(O)[C@H]1[C@@H](c2ccccc2)[C@H](C(=O)OCc2ccccc2)[C@@H]1c1ccccc1	< 5.00
COc1ccccc1C1C(C(=O)O)C(c2ccccc2OC)C1C(=O)O[C@@H]1CCCC[C@H]1c1ccccc1 (stereo partly drawn)	6.40

* * *

pKi: −log10 of the molar value.
Values of pKi reported for UniProt:Q01469 appear below.
Sequence (Q01469 whole entry, species assumed): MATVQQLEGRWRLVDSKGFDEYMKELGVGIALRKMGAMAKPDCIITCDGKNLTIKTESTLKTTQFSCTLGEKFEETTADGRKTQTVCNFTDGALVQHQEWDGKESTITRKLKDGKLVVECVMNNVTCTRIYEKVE

smiles.representation	bound.type	pKi
O=C(O)[C@H]1[C@@H](c2ccc(O)cc2)[C@H](C(=O)Oc2cccc3ccccc23)[C@@H]1c1ccc(O)cc1	<	5.00
CCOCCOCCOCCn1cc(-c2cccc(OC(=O)[C@H]3[C@@H](c4ccccc4)[C@H](C(=O)O)[C@@H]3c3ccccc3)c2)nn1	<	5.00
O=C(O)[C@H]1[C@H](c2ccccc2)[C@H](C(=O)Oc2ccc(-c3ccccc3)cc2)[C@H]1c1ccccc1	=	5.60
O=C(O)[C@H]1[C@H](c2ccccc2)[C@H](C(=O)Oc2ccccc2-c2ccccc2O)[C@H]1c1ccccc1	=	5.80
O=C(O)[C@H]1[C@@H](c2ccccc2)[C@H](C(=O)OCC(F)(F)F)[C@@H]1c1ccccc1	<	5.00
O=C(O)[C@H]1[C@H](c2ccccc2)[C@H](C(=O)OCc2ccc(F)cc2)[C@H]1c1ccccc1	=	5.62
COc1ccc(COC(=O)[C@H]2[C@@H](c3ccccc3)[C@H](C(=O)O)[C@@H]2c2ccccc2)cc1	=	5.67
O=C(O)[C@H]1[C@H](c2ccccc2)[C@H](C(=O)OCc2ccc(Br)cc2)[C@H]1c1ccccc1	=	5.80
